TEST_TARGET: Transient receptor potential cation channel subfamily V member 1 (Homo sapiens, UniProt Q8NER1)
Sequence (Q8NER1 whole entry): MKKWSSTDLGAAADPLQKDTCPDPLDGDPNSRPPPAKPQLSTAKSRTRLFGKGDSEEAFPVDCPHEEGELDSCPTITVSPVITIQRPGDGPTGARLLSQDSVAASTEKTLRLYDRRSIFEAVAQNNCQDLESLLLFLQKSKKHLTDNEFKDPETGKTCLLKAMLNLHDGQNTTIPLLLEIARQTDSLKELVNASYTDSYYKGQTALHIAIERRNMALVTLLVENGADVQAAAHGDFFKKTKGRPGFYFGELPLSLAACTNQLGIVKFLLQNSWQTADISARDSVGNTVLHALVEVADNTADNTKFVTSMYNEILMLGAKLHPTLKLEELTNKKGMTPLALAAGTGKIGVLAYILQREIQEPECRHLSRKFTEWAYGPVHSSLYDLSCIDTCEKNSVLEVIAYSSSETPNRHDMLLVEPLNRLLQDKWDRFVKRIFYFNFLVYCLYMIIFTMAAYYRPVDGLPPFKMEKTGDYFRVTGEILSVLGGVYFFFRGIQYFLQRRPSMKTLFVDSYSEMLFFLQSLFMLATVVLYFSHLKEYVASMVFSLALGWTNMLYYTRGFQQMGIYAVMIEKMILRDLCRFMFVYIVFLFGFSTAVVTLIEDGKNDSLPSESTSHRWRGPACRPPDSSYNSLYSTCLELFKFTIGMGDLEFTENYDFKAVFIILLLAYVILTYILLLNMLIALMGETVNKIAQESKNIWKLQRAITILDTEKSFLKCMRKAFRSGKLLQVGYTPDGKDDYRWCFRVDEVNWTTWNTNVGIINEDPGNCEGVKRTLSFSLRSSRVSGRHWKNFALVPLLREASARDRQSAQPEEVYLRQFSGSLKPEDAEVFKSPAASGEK
MEASUREMENT_NOTES: Antagonist activity at recombinant human TRPV1 channel expressed in HEK293 cells assessed as inhibition of capsiacin-induced Ca2+ flux preincubated for 5 mins followed by capsiacin challenge by Fluo-4-AM dye based spectrofluorimetry
Assay type: cell-based
pIC50: −log10 of the molar value.

[
  {
    "SMILES_STRUCTURE": "O=C(NCCCCc1ccccc1)c1ccc(B(O)O)cc1",
    "LIMIT_OPERATOR": "<",
    "pIC50": 5.00
  },
  {
    "SMILES_STRUCTURE": "O=C(/C=C/c1ccc(Cl)cc1)Nc1ccc(B(O)O)cc1",
    "LIMIT_OPERATOR": "=",
    "pIC50": 5.86
  },
  {
    "SMILES_STRUCTURE": "O=C(Cc1ccc(B(O)O)cc1)NCc1ccc(-c2ccccc2)cc1",
    "LIMIT_OPERATOR": "=",
    "pIC50": 5.26
  },
  {
    "SMILES_STRUCTURE": "O=C(NCCc1ccc(O)cc1)c1ccc(B(O)O)cc1",
    "LIMIT_OPERATOR": "<",
    "pIC50": 5.00
  },
  {
    "SMILES_STRUCTURE": "O=C(CCCCCCCc1ccccc1)Nc1ccc(B(O)O)cc1",
    "LIMIT_OPERATOR": "<",
    "pIC50": 5.00
  },
  {
    "SMILES_STRUCTURE": "COc1cc(CNC(=O)Nc2ccc(C(C)(C)C)cc2)ccc1B(O)O",
    "LIMIT_OPERATOR": "=",
    "pIC50": 5.09
  },
  {
    "SMILES_STRUCTURE": "O=C(Cc1ccc(-c2ccccc2)cc1)Nc1ccc(B(O)O)cc1",
    "LIMIT_OPERATOR": "<",
    "pIC50": 5.00
  },
  {
    "SMILES_STRUCTURE": "CCCCCCCC/C=C\\CCCCCCCC(=O)NCc1ccc(B(O)O)c(OC)c1",
    "LIMIT_OPERATOR": "=",
    "pIC50": 7.49
  },
  {
    "SMILES_STRUCTURE": "CC(C)(C)c1ccc(NC(=O)Cc2ccc(B(O)O)cc2)cc1",
    "LIMIT_OPERATOR": "<",
    "pIC50": 5.00
  },
  {
    "SMILES_STRUCTURE": "COc1cc(CNC(=O)CCCCCCCc2ccccc2)ccc1B(O)O",
    "LIMIT_OPERATOR": "=",
    "pIC50": 7.47
  },
  {
    "SMILES_STRUCTURE": "O=C(Cc1ccccc1)NCCCCCCCc1ccccc1",
    "LIMIT_OPERATOR": "=",
    "pIC50": 5.92
  },
  {
    "SMILES_STRUCTURE": "CC(C)(C)c1ccc(NC(=O)c2ccc(B(O)O)cc2)cc1",
    "LIMIT_OPERATOR": "=",
    "pIC50": 6.12
  }
]

###

Measured Efficacy by item
TEST_TARGET: Transient receptor potential cation channel subfamily V member 1 (Homo sapiens, UniProt Q8NER1)
MEASUREMENT_NOTES: Agonist activity at recombinant human TRPV1 channel expressed in HEK293 cells assessed as increase in intracellular Ca2+ concentration by Fluo-4-AM dye based spectrofluorimetry relative to ionomycin
Format: cell-based
RESULT_TYPE: Efficacy (%)

[
  {
    "MOLECULE": "O=C(/C=C/c1ccc(Cl)cc1)Nc1cccc(B(O)O)c1",
    "LIMIT_OPERATOR": "<",
    "RECORDED_RESULT": 10
  },
  {
    "MOLECULE": "O=C(NCc1ccc(-c2ccccc2)cc1)c1ccc(B(O)O)cc1",
    "LIMIT_OPERATOR": "<",
    "RECORDED_RESULT": 10
  },
  {
    "MOLECULE": "CC(C)(C)c1ccc(NC(=O)Cc2ccc(B(O)O)cc2)cc1",
    "LIMIT_OPERATOR": "<",
    "RECORDED_RESULT": 10
  },
  {
    "MOLECULE": "O=C(Cc1ccc(-c2ccccc2)cc1)Nc1ccc(B(O)O)cc1",
    "LIMIT_OPERATOR": "<",
    "RECORDED_RESULT": 10
  },
  {
    "MOLECULE": "O=C(NCc1ccccc1)c1ccc(B(O)O)cc1",
    "LIMIT_OPERATOR": "<",
    "RECORDED_RESULT": 10
  },
  {
    "MOLECULE": "COc1cccc(NC(=O)/C=C/c2ccc(Cl)cc2)c1",
    "LIMIT_OPERATOR": "<",
    "RECORDED_RESULT": 10
  },
  {
    "MOLECULE": "CCCCC/C=C\\C/C=C\\C/C=C\\C/C=C\\CCCC(=O)NCCc1c[nH]c2ccc(O)cc12",
    "LIMIT_OPERATOR": "<",
    "RECORDED_RESULT": 10
  },
  {
    "MOLECULE": "OB(O)c1ccc(-c2ccccc2)cc1 [BIPHENYLBORONIC ACID]",
    "LIMIT_OPERATOR": "<",
    "RECORDED_RESULT": 10
  },
  {
    "MOLECULE": "CC(C)(C)c1ccc(NC(=O)NCc2ccc(B(O)O)cc2)cc1",
    "LIMIT_OPERATOR": "<",
    "RECORDED_RESULT": 10
  },
  {
    "MOLECULE": "O=C(Nc1ccc(-c2ccccc2)cc1)c1ccc(B(O)O)cc1",
    "LIMIT_OPERATOR": "=",
    "RECORDED_RESULT": 12.5
  },
  {
    "MOLECULE": "O=C(NCCc1ccc(O)cc1)c1ccc(B(O)O)cc1",
    "LIMIT_OPERATOR": "<",
    "RECORDED_RESULT": 10
  },
  {
    "MOLECULE": "O=C(Cc1ccc(B(O)O)cc1)NCCCCc1ccccc1",
    "LIMIT_OPERATOR": "=",
    "RECORDED_RESULT": 44.9
  },
  {
    "MOLECULE": "O=C(Cc1ccc(B(O)O)cc1)NCCCCCc1ccccc1",
    "LIMIT_OPERATOR": "=",
    "RECORDED_RESULT": 62.8
  },
  {
    "MOLECULE": "O=C(CCCCCc1ccccc1)NCc1ccc(B(O)O)cc1",
    "LIMIT_OPERATOR": "=",
    "RECORDED_RESULT": 41.1
  },
  {
    "MOLECULE": "COc1cc(CNC(=O)CCCCCc2ccccc2)ccc1B(O)O",
    "LIMIT_OPERATOR": "=",
    "RECORDED_RESULT": 59.3
  },
  {
    "MOLECULE": "O=C(CCCCCCCc1ccccc1)Nc1ccc(B(O)O)cc1",
    "LIMIT_OPERATOR": "<",
    "RECORDED_RESULT": 10
  },
  {
    "MOLECULE": "O=C(/C=C/c1ccc(Cl)cc1)NCc1ccc(B(O)O)cc1",
    "LIMIT_OPERATOR": "<",
    "RECORDED_RESULT": 10
  },
  {
    "MOLECULE": "CC(C)(C)c1ccc(NC(=O)c2ccc(B(O)O)cc2)cc1",
    "LIMIT_OPERATOR": "<",
    "RECORDED_RESULT": 10
  },
  {
    "MOLECULE": "O=C(Cc1ccc(B(O)O)cc1)NCc1ccc(-c2ccccc2)cc1",
    "LIMIT_OPERATOR": "=",
    "RECORDED_RESULT": 27.4
  },
  {
    "MOLECULE": "O=C(Cc1ccc(B(O)O)cc1)NCCCCCCCc1ccccc1",
    "LIMIT_OPERATOR": "=",
    "RECORDED_RESULT": 52.5
  },
  {
    "MOLECULE": "CCCCCCCC/C=C\\CCCCCCCC(=O)NCc1ccc(B(O)O)c(OC)c1",
    "LIMIT_OPERATOR": "=",
    "RECORDED_RESULT": 49.2
  },
  {
    "MOLECULE": "CCCCCCCC/C=C\\CCCCCCCC(=O)NCc1ccc(B(O)O)cc1",
    "LIMIT_OPERATOR": "=",
    "RECORDED_RESULT": 42.2
  },
  {
    "MOLECULE": "CCCCCCCCCc1ccc(B(O)O)cc1",
    "LIMIT_OPERATOR": "<",
    "RECORDED_RESULT": 10
  },
  {
    "MOLECULE": "COc1cc(CNC(=O)CCCCCCCc2ccccc2)ccc1B(O)O",
    "LIMIT_OPERATOR": "=",
    "RECORDED_RESULT": 62.5
  }
]
